Molecular target: T1, recombinant human CD123-Fc (human, UniProt P26951 19-305)
T1 construct: not shown: Fc part of CD123-Fc
T1 sequence: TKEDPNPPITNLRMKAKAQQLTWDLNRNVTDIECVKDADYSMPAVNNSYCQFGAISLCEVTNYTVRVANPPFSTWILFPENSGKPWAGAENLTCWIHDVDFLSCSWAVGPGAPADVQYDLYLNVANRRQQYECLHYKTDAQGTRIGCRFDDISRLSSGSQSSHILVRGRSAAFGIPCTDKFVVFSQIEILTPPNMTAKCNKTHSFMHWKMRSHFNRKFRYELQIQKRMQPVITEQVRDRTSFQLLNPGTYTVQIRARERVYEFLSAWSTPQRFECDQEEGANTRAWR
Test: phage ELISA, captured CD123-Fc
metric: ELISA_avg (ratio A450 target/IgG1-Fc)
Answer format: numeric, ratio A450 target/IgG1-Fc implied, no suffix.

SEQ ID NO: 612 (designed binder, D domain, on phage) MGSWYEFFDRLDAIDERLWALGGSEAELAWFEAEIAEFEMELQGYKGKGNPEVEALDVEAHAIEMELFAYRHN	3.7

Q) Name the reported ELISA_avg value associated with the binder SEQ ID NO: 404 (designed binder, D domain, on phage) MGSWIEFNMRLDAIYERLVALGGSEAELAAFEKEIAAFESELQAYKGKGNPEVEWLRKVAANIRLELQAYRHN
A) 11.4

Q) What about SEQ ID NO: 478 (designed binder, D domain, on phage) MGSWSWFKEDLASIKAVLEALGGSEAELAFFESDIAEFEQELQYYKGKGNPEVEALRKEAAAIRDELQAYRHN ?
A) 6.9

Q) What about SEQ ID NO: 493 (designed binder, D domain, on phage) MGSWQDFKEDLAWIKYELEALGGSEAELAFFEYDIAIFENNLQHYKGKGNPEVEALRKEAAAIRDELQAYRHN ?
A) 3.2

Q) What about SEQ ID NO: 609 (designed binder, D domain, on phage) MGSWWEFEDRLYAIDDRLWALGGSEAELAQFEREIAQFEIWLQEYKGKGNPEVEALDDEATAINSELFAYRHN ?
A) 5.5
